# measured_target: human M1 receptor (hCHRM1) (Homo sapiens, UniProt P11229)
# Sequence (P11229 1-460): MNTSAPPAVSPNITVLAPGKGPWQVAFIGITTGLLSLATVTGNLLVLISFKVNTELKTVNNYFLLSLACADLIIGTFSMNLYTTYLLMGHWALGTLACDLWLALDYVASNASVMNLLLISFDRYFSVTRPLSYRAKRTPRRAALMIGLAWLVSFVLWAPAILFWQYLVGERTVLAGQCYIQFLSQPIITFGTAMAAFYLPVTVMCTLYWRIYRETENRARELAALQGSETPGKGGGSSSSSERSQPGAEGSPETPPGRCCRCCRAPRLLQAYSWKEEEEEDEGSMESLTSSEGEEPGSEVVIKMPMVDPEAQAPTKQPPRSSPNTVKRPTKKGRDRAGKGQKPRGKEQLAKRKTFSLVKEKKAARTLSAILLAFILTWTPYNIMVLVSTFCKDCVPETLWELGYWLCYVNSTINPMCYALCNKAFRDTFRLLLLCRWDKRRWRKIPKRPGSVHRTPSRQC
# assay_procedure: Measurement of M1 receptor positive allosteric modulator (M1PAM) activity, calcium fluorescence in CHO-K1 cells
# assay_conditions: inflection point of concentration-dependent curve; in the presence of acetylcholine at EC20 concentration (final 0.8-1.0 nM); read-out: IP value
endpoint_name: EC50 (nM)

Cc1c(Cc2ccc(C(=O)NCC3CC3)cc2)cc2c(=O)n([C@H]3CCOC[C@@H]3O)cnc2c1C 1.6

(a) Cc1c(Cc2ccc(C(=O)NCC(=O)N(C)C)c(F)c2)cc2c(=O)n([C@H]3CCOC[C@@H]3O)cnc2c1C
(b) COCCNC(=O)c1ccc(Cc2cc3c(=O)n([C@H]4CCOC[C@@H]4O)cnc3c(C)c2C)cc1
(c) Cc1c(Cc2ccc(-c3cnn(C)c3)cc2)cc2c(=O)n([C@H]3CCOC[C@@H]3O)cnc2c1C
Task item: Arrange these compounds by their EC50, starting with the largest number. Output spec: a listing of the labels in the requested order.
Reply: c, a, b

----------
# measured_target: human M1 receptor (hCHRM1) (Homo sapiens, UniProt P11229)
# assay_procedure: Measurement of M1 receptor positive allosteric modulator (M1PAM) activity, calcium fluorescence in CHO-K1 cells
# assay_conditions: inflection point of concentration-dependent curve; in the presence of acetylcholine at EC20 concentration (final 0.8-1.0 nM); read-out: IP value
pEC50: −log10 of the molar value.
endpoint_name: pEC50

molecule	pEC50
CCOCCNC(=O)c1ccc(Cc2cc3c(=O)n([C@H]4CCOC[C@@H]4O)cnc3c(C)c2C)cc1F [Example 85]	8.68
Cc1c(Cc2ccc(C(=O)NC3CC(F)(F)C3)cc2)cc2c(=O)n([C@H]3CCOC[C@@H]3O)cnc2c1C [Example 25]	8.72
Cc1c(Cc2ccc(C(=O)NC[C@@H]3CCCO3)c(F)c2)cc2c(=O)n([C@H]3CCOC[C@@H]3O)cnc2c1C [Example 80]	8.72
Cc1c(Cc2ccc(-c3cn(C)nn3)nc2)cc2c(=O)n([C@H]3CCOC[C@@H]3O)nnc2c1C [Example 62]	8.60

(1) COCCNC(=O)c1ccc(Cc2cc3c(=O)n([C@H]4CCOC[C@@H]4O)cnc3c(C)c2C)cc1F [Example 66]
(2) Cc1c(Cc2ccc(C(=O)NCC(C)(C)O)cc2)cc2c(=O)n([C@H]3CCOC[C@@H]3O)cnc2c1C [Example 39]
Task item: Which entry has a larger number for pEC50, 1 or 2 ? # respond with the chosen item's label
Reply: 1

(P) Cc1c(Cc2ccc(C(=O)NCCS(C)(=O)=O)c(F)c2)cc2c(=O)n([C@H]3CCOC[C@@H]3O)cnc2c1C [Example 84]
(Q) Cc1c(Cc2ccc(-c3cnn(C)c3)nc2)cc2c(=O)n([C@H]3CCOC[C@@H]3O)cnc2c1Cl [Example 11]
(R) COCCCNC(=O)c1ccc(Cc2cc3c(=O)n([C@H]4CCOC[C@@H]4O)cnc3c(C)c2C)cc1F [Example 86]
Task item: Write the entries in order, lowest recorded pEC50 first. Output spec: a listing of the labels in the requested order.
Reply: R, P, Q
(R: 8.51, P: 8.72, Q: 9.04)

----------
# measured_target: MDR1 (Homo sapiens, UniProt P08183)
# Construct: expressed in transfected cells
# Sequence (P08183 whole entry): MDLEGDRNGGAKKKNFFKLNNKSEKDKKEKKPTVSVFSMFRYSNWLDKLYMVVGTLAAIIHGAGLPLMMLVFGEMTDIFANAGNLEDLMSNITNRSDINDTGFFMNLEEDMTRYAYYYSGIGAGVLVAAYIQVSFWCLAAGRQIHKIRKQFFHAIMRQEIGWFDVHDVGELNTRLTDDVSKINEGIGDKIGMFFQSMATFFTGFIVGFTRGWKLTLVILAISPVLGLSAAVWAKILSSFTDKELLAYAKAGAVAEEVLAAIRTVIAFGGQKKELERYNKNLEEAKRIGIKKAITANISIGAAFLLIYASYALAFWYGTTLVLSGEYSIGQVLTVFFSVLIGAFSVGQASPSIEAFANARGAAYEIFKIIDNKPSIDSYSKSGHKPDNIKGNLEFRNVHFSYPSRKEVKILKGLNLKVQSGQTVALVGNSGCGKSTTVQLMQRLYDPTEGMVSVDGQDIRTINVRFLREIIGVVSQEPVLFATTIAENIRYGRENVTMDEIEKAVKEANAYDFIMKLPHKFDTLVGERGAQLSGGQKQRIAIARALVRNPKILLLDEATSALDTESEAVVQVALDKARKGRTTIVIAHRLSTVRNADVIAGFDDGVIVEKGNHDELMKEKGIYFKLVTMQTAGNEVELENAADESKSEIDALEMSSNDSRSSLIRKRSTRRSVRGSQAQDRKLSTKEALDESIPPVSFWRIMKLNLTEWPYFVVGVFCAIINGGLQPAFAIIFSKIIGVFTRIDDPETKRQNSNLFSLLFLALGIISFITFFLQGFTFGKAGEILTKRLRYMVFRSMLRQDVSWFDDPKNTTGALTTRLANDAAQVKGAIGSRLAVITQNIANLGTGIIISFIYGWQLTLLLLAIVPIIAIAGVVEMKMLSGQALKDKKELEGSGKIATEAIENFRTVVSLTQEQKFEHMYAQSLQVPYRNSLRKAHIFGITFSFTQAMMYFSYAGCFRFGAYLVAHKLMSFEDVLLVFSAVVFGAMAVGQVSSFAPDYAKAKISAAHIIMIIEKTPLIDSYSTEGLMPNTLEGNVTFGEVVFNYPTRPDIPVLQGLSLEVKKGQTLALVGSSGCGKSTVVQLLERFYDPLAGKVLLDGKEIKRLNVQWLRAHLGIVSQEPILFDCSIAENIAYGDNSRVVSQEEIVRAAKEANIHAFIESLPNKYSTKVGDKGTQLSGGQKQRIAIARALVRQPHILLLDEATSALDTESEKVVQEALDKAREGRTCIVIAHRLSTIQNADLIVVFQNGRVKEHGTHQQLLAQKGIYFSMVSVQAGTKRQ
# assay_procedure: MDR1 membrane permeability test
# Assay type: in vitro ADME
# assay_conditions: pH 7.4, efflux ratio (ER), Papp B to A / A to B, human MDR1-expressing LLC-PK1 cells, read-out: MDR1 substrate screening 1 μM (MDRSUB1)/Ratio (NUMBER)
endpoint_name: efflux ratio at 1 hr, 1 μM

Here are 2 molecules together with their reported answers.
molecule	efflux ratio at 1 hr, 1 μM
Cc1c(Cc2ccc(C(=O)NC3CC(F)C3)cc2)cc2c(=O)n([C@H]3CCOC[C@@H]3O)cnc2c1C (stereo partly shown)	18
Cc1c(Cc2ccc(-c3cn(C)nn3)nc2)cc2c(=O)n([C@H]3CCOC[C@@H]3O)nnc2c1C	9.4

(I) Cc1c(Cc2ccc(C(=O)NC3COC3)cc2)cc2c(=O)n([C@H]3CCOC[C@@H]3O)cnc2c1C
(II) Cc1c(Cc2ccc(-c3ccn(C)n3)nc2)cc2c(=O)n([C@H]3CCOC[C@@H]3O)cnc2c1Cl
Task item: Which entry has a larger number for efflux ratio at 1 hr, 1 μM, I or II ? # respond with the chosen item's label
Reply: II
(II: 38, I: 23)

----------
# measured_target: human M1 receptor (hCHRM1) (Homo sapiens, UniProt P11229)
# Sequence (P11229 1-460): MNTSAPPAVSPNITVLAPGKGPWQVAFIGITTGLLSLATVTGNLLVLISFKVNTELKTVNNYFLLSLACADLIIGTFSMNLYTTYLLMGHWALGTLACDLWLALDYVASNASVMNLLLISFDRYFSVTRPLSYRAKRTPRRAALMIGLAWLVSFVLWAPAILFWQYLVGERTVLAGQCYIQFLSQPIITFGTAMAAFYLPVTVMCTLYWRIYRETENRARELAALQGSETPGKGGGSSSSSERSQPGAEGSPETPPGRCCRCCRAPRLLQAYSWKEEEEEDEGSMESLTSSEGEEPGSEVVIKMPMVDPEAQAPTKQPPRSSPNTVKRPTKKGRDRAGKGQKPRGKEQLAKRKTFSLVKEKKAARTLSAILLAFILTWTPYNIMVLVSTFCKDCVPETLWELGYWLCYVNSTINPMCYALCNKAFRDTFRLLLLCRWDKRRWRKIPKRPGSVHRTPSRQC
# assay_procedure: Measurement of M1 receptor positive allosteric modulator (M1PAM) activity, calcium fluorescence in CHO-K1 cells
# assay_conditions: inflection point of concentration-dependent curve; in the presence of acetylcholine at EC20 concentration (final 0.8-1.0 nM); read-out: IP value
pEC50: −log10 of the molar value.
endpoint_name: pEC50

Cc1c(Cc2ccc(-c3cnn(C)c3)nc2)cc2c(=O)n([C@H]3CCOC[C@@H]3O)nnc2c1Cl 9.00
Cc1c(Cc2ccc(C(=O)NC3CC3)c(F)c2)cc2c(=O)n([C@H]3CCOC[C@@H]3O)cnc2c1C 8.64
Cc1c(Cc2ccc(C(=O)NCC3(O)CC3)c(F)c2)cc2c(=O)n([C@H]3CCOC[C@@H]3O)cnc2c1C 8.72
Cc1c(Cc2ccc(-c3cn(C)nn3)nc2)cc2c(=O)n([C@H]3CCOC[C@@H]3O)cnc2c1C 8.82
Cc1c(Cc2ccc(C(=O)NC3CS(=O)(=O)C3)c(F)c2)cc2c(=O)n([C@H]3CCOC[C@@H]3O)cnc2c1C 8.82
